# System: Klebsiella pneumoniae
# Assay details: Antibacterial activity against ESBL-producing Klebsiella pneumoniae CCPM(A)-081568 assessed as reduction in microbial growth after 16 to 18 hrs by microbroth dilution method
# Type: functional
# Setup conditions: time 16-18 hrs
Readout: MIC (ng/mL)
Response body: numeric value in ng/mL, unit text excluded.

Nc1nc(N)c2c(ccc3c2ccn3Cc2cccc(F)c2)n1; 2

Exercise: Sample Nc1nc(N)c2c(ccc3c2ccn3Cc2ccccc2F)n1 — what was its MIC?
Solution: 30

Exercise: Sample Nc1nc(N)c2c(ccc3c2ccn3Cc2cccs2)n1 — what was its MIC?
Solution: 2

---

# Tested on: Escherichia coli
# Assay details: Antibacterial activity against ESBL-producing Escherichia coli CCPM(A)-0715117 assessed as reduction in microbial growth after 16 to 18 hrs by microbroth dilution method
# Type: functional
# Setup conditions: time 16-18 hrs
Readout: MIC (ng/mL)
Response body: numeric value in ng/mL, unit text excluded.

COc1cc(Cc2cnc(N)nc2N)cc(OC)c1OC; 2000
Nc1nc(N)c2c(ccc3c2ccn3Cc2cccc(F)c2)n1; 2

Exercise: Sample Nc1nc(N)c2c(ccc3c2ccn3Cc2ccccc2F)n1 — what was its MIC?
Solution: 2

Exercise: Sample Nc1nc(N)c2c(ccc3c2ccn3Cc2cccs2)n1 — what was its MIC?
Solution: 2
